Attribution: ChEMBL document CHEMBL6153133

Method description: Permeability of compound at pH 7.4 measured after 4 hrs by GIT-PAMPA assay
Type: ADME
Experimental context: read-out: permeability
# Papp at 4 h listing for each entry below

Examples from the recorded data:
{"Compound structure string": "Oc1cc(NCCCCCN2CCOCC2)ccc1Oc1c(F)c(F)c(C(F)(F)F)c(F)c1F", "Assay result": "56.6 ×10⁻⁶ cm/s"}
{"Compound structure string": "COc1cc(N)ccc1Oc1c(F)c(F)c(C(F)(F)F)c(F)c1F", "Assay result": "73.6 ×10⁻⁶ cm/s"}

Now for the compound whose Papp at 4 h we want.
Exam item: Which Papp at 4 h reading was recorded for the compound `Nc1ccc(Oc2c(F)c(F)c(C(F)(F)F)c(F)c2F)c(O)c1` ?
Marked response: 41.1 ×10⁻⁶ cm/s
